Target: PDGFRβ (Rattus norvegicus (Rat))
Sequence (Q05030 32-1097): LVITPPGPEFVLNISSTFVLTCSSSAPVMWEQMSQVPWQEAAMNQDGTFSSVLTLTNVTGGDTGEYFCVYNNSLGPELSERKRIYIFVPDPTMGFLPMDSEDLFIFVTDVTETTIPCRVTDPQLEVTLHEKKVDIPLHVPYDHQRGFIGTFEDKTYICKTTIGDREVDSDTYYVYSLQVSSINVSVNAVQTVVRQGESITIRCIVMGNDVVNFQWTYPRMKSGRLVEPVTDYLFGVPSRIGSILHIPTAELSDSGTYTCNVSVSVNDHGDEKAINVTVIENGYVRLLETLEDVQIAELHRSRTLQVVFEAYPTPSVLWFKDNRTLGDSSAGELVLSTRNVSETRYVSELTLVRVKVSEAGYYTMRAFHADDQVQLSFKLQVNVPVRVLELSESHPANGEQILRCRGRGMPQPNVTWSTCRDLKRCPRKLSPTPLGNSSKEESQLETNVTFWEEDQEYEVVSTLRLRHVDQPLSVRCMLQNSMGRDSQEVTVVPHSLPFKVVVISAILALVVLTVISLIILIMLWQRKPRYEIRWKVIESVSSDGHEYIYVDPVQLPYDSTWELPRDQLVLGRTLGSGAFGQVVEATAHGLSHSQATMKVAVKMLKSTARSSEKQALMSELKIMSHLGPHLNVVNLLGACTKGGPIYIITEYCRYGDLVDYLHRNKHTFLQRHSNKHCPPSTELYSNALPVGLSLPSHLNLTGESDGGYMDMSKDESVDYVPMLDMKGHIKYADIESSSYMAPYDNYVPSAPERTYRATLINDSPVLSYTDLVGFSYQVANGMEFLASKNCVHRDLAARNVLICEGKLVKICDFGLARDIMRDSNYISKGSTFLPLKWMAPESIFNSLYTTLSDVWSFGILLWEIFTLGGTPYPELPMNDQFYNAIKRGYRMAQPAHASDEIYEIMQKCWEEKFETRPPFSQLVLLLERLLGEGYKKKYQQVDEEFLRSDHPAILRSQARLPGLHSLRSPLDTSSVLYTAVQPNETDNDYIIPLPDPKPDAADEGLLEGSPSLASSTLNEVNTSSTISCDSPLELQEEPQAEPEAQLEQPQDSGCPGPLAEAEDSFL
Experiment: PDGFRβ Cellular Assay (PDGFRb P-Y751 HTRF in A10 cells stimulated with PDGF-BB)
Format: cell-based
Details: read-out: PDGFR Cellular IC50
log10(IC50) values by entry
readout.name: log10(IC50) (log10 of the value in nM)

>>> print(df.to_string())
                                    molecule  recorded_value
 0  Cc1ncc(NC(=O)CN2C[C@H](C)O[C@@H](C)C2)cc1NC(=O)c1cnn2cc(-c3cnn(C)c3)sc12           -0.05
 1  Cc1ncc(NC(=O)CN2CC(C)(C)C2)cc1NC(=O)c1cnn2cc(-c3cnn(C)c3)sc12            0.72
 2  Cc1ncc(C(=O)NCCN2CCC3(CC3)C2)cc1NC(=O)c1cnn2cc(-c3cnn(C)c3C)sc12            1.53
 3  Cc1ncc(C(=O)NCCN2CC3CCC2CC3)cc1NC(=O)c1cnn2cc(-c3cnn(C4COC4)c3)sc12            2.03
 4  Cc1ncc(NC(=O)CN2CC(C)(C)C2)cc1NC(=O)c1cnn2cc(-c3cnn4c3CCC4)sc12            0.20
 5  Cc1cc(C(=O)NCCN2CCCC2(C)C)sc1NC(=O)c1cnn2cc(-c3cccnc3)sc12            0.95
 6  Cc1ncc(C(=O)NCCN2CC(F)(F)C2)cc1NC(=O)c1cnn2cc(-c3cnn(C)c3)sc12            1.68
 7  COc1ncccc1-c1cn2ncc(C(=O)Nc3cc(C(=O)NCCN4CCCC4C)cnc3C)c2s1 (stereo not drawn)            0.75
 8  Cc1ncc(NC(=O)CCN2CCCC2(C)C)cc1NC(=O)c1cnn2cc(-c3ccn(C)n3)sc12            0.89
 9  Cc1ncc(C(=O)NCCN2Cc3ncsc3C2)cc1NC(=O)c1cnn2cc(-c3cnn(C)c3)sc12            2.47
10  COc1cnccc1-c1cn2ncc(C(=O)Nc3cc(NC(=O)CN4CC(C)(C)C4)cnc3C)c2s1            0.11
11  Cc1ncc(NC(=O)CN2CCn3ccnc3C2)cc1NC(=O)c1cnn2cc(-c3cnn(C)c3)sc12            3.44
12  COc1ncccc1-c1cn2ncc(C(=O)Nc3cc(NC(=O)[C@@H]4C[C@H](C)CN4C)cnc3C)c2s1            0.81
13  CC(=O)Nc1cncc(-c2cn3ncc(C(=O)Nc4cc(NC(=O)CN5CC(C)(C)C5)cnc4C)c3s2)c1            2.15
14  Cc1ncc(C(=O)NCCN2CCCC2(C)C)cc1NC(=O)c1cnn2cc(-c3ccn(C)n3)sc12            1.23
15  Cc1ncc(NC(=O)CN2CC(C)(C)C2)cc1NC(=O)c1cnn2cc(-c3cnn(CCS(C)(=O)=O)c3)sc12            2.14
16  Cc1ncc(NC(=O)CN(C)C2CCOCC2)cc1NC(=O)c1cnn2cc(-c3cnn(C(F)F)c3)sc12            1.33
17  Cc1ncc(NC(=O)C2CN(C(C)C)C2)cc1NC(=O)c1cnn2cc(-c3cn(C)nc3C)sc12            1.90
18  Cc1ncc(C(=O)NCCN2CCCC2(C)C)cc1NC(=O)c1cnn2cc(-c3cnn4c3COCC4)sc12            1.33
19  Cc1ncc(NC(=O)CN2CC3(CCCCO3)C2)cc1NC(=O)c1cnn2cc(-c3cnn4c3CCC4)sc12            0.83
20  Cc1ncc(NC(=O)CN2CCc3ncccc3C2)cc1NC(=O)c1cnn2cc(-c3cnn(C)c3)sc12            2.35
21  COCCn1cc(-c2cn3ncc(C(=O)Nc4cc(NC(=O)[C@H]5CCCN5C(C)C)cnc4C)c3s2)cn1            1.77
22  Cc1ncc(C(=O)NCCN2CCCC2)cc1NC(=O)c1cnn2cc(-c3c(C)nn(C)c3C)sc12            1.84
23  Cc1ncc(C(=O)N2CC2CNC(C)(C)C)cc1NC(=O)c1cnn2cc(-c3cccc4c3cnn4C)sc12 (stereo not drawn)            2.54
24  Cc1ncc(C(=O)NCCN2C3CCCC2CCC3)cc1NC(=O)c1cnn2cc(-c3cnn(C)c3)sc12            1.07
25  Cc1ncc(NC(=O)CN2CCCC(O)C2)cc1NC(=O)c1cnn2cc(-c3cnn(C)c3)sc12 (stereo not drawn)            2.08
26  Cc1ncc(NC(=O)CNC2CCC2)cc1NC(=O)c1cnn2cc(-c3cnn4c3CCC4)sc12            0.53
27  Cc1ncc(C(=O)NCCN2CC3CCC2CC3)cc1NC(=O)c1cnn2cc(-c3cnn4c3OCCC4)sc12            1.66

====

Listed here: items and their measured IC50.
Biological target: VEGFR2, unphosphorylated (Homo sapiens (Human))
Sequence (P35968 20-1356): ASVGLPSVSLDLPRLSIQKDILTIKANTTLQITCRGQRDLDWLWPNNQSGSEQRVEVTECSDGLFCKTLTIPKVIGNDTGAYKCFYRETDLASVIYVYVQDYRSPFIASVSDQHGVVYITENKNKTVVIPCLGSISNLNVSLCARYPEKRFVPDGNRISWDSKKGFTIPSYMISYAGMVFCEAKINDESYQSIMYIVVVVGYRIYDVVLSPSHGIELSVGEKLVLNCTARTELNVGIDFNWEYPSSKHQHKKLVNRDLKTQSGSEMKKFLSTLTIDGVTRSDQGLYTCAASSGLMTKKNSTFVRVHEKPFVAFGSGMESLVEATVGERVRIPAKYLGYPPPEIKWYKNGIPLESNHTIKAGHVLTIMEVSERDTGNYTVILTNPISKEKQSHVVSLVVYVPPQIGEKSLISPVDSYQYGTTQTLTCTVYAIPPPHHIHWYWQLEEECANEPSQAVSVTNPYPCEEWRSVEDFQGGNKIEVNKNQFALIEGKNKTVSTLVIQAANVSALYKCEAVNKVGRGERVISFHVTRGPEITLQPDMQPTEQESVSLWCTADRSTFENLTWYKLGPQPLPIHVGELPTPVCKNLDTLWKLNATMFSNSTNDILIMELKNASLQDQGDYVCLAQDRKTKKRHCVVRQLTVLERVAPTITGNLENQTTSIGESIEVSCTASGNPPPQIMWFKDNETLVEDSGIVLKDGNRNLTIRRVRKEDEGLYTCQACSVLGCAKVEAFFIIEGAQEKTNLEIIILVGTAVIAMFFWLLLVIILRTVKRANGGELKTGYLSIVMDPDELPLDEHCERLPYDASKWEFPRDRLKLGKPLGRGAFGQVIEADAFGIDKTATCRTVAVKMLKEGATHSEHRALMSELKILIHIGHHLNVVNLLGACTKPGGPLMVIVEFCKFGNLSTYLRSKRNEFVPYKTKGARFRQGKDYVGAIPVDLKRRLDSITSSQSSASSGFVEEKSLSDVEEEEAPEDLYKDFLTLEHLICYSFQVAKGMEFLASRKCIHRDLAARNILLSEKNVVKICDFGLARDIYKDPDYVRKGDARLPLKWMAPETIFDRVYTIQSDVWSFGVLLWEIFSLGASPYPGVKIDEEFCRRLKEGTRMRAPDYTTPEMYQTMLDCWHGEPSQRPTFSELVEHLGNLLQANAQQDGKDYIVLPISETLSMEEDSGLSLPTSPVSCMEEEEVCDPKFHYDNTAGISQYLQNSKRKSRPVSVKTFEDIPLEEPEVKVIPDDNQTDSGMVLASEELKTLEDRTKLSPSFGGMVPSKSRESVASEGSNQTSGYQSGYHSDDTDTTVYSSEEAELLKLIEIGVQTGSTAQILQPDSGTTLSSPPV
Assay: VEGFR ADP GLO Assay
readout.name: IC50

>>> df
                                    molecule  recorded_value
 0  Cc1ncc(NC(=O)CN2CC(C)(C)C2)cc1NC(=O)c1cnn2cc(-c3cccnc3C)sc12 [Example 390]        > 7.5 µM
 1  Cc1ncc(NC(=O)CN2CC3CCC(C2)O3)cc1NC(=O)c1cnn2cc(-c3cc[nH]c3)sc12 [Example 366]        0.571 µM
 2  Cc1ncc(NC(=O)CN2CC3(COC3)C2)cc1NC(=O)c1cnn2cc(-c3cnn4c3OCCC4)sc12 [Example 411]        > 7.5 µM
 3  Cc1ncc(NC(=O)CC2CN(C)C2)cc1NC(=O)c1cnn2cc(-c3cnn4c3CCC4)sc12 [Example 468]        > 7.5 µM
 4  Cc1ncc(NS(=O)(=O)CCN2CC3CCC2CC3)cc1NC(=O)c1cnn2cc(-c3cnn(C)c3)sc12 [Example 358]        > 7.5 µM
 5  Cc1ncc(NC(=O)CN2CC(C)(C)C2)cc1NC(=O)c1cnn2cc(-c3cnn(CC(C)O)c3)sc12 (stereo not drawn) [Example 281]        > 7.5 µM
 6  Cc1ncc(NC(=O)OC[C@@H]2CCCN2C)cc1NC(=O)c1cnn2cc(-c3cccc4c3cnn4C)sc12 [Example 257]        > 2.5 µM
 7  Cc1ncc(NC(=O)CN(C)C2CCOCC2)cc1NC(=O)c1cnn2cc(-c3cnn(CC(N)=O)c3)sc12 [Example 300]        > 7.5 µM
 8  Cc1ncc(C(=O)NCCN2C3CCCC2CCC3)cc1NC(=O)c1cnn2cc(-c3cnn(C)c3)sc12 [Example 4]        > 7.5 µM
 9  Cc1ncc(C(=O)NCCN2CCC3(CC3)C2)cc1NC(=O)c1cnn2cc(-c3cn(C)cn3)sc12 [Example 162]        > 7.5 µM
10  COCCn1cc(-c2cn3ncc(C(=O)Nc4cc(NC(=O)CCN5CCCC5(C)C)cnc4C)c3s2)cn1 [Example 41]        > 7.5 µM
11  Cc1cc(C(=O)NCCN2CCC3(CCC3)CC2)sc1NC(=O)c1cnn2cc(-c3cnn(C)c3)sc12 [Example 203]        > 7.5 µM
12  CC[C@@H]1CN(CC(=O)Nc2cnc(C)c(NC(=O)c3cnn4cc(-c5cnn(C)c5)sc34)c2)CCO1 [Example 65]        > 7.5 µM
13  Cc1ncc(C(=O)NCCN2CCCC2(C)C)cc1NC(=O)c1cnn2cc(-c3cnn(CCO)c3)sc12 [Example 140]        > 7.5 µM
14  COc1ncccc1-c1cn2ncc(C(=O)Nc3cc(NC(=O)C[C@H]4CCCN4C(C)C)cnc3C)c2s1 [Example 309]        > 7.5 µM
15  Cc1ncc(C(=O)NCCN2C3CCC2COC3)cc1NC(=O)c1cnn2cc(-c3cnn(C)c3)sc12 [Example 122]        > 7.5 µM
16  Cc1cc(C(=O)NCCN2CCC(C)(C)CC2)sc1NC(=O)c1cnn2cc(-c3cnn(C)c3)sc12 [Example 183]        > 7.5 µM
17  Cc1ncc(NC(=O)CN(C)C2CCOCC2)cc1NC(=O)c1cnn2cc(-c3cnn(CC#N)c3)sc12 [Example 299]        > 7.5 µM
18  COc1ncccc1-c1cn2ncc(C(=O)Nc3cc(NC(=O)OCCN4CCCC4(C)C)cnc3C)c2s1 [Example 254]        > 7.5 µM
19  Cc1ncc(C(=O)NCCN2CCCC2(C)C)cc1NC(=O)c1cnn2cc(-c3c(C)n[nH]c3C)sc12 [Example 231]        > 7.5 µM
20  Cc1ncc(C(=O)NCCN2CCCC2(C)C)cc1NC(=O)c1cnn2cc(-c3cccc4c3cnn4C)sc12 [Example 240]        > 2.5 µM
21  Cc1cc(C(=O)NCCN(C)C2CCCC2)sc1NC(=O)c1cnn2cc(-c3cnn(C)c3)sc12 [Example 190]        > 7.5 µM
22  Cc1ncc(NC(=O)CN2CCCOCC2)cc1NC(=O)c1cnn2cc(-c3cnn(C)c3)sc12 [Example 80]        > 7.5 µM
23  Cc1ncc(NC(=O)C[C@@H]2CCCN2C(C)C)cc1NC(=O)c1cnn2cc(-c3cccnc3O)sc12 [Example 322]        > 7.5 µM
24  CC(=O)Nc1cncc(-c2cn3ncc(C(=O)Nc4cc(NC(=O)CN5CC(C)(C)C5)cnc4C)c3s2)c1 [Example 277]        > 2.5 µM
25  Cc1ncc(NC(=O)CCN2CCCC2(C)C)cc1NC(=O)c1cnn2cc(-c3cnn(CCO)c3)sc12 [Example 88]        > 7.5 µM
26  Cc1ncc(NC(=O)CC2CN(C)C2)cc1NC(=O)c1cnn2cc(-c3cnn4c3CCC4)sc12 [Example 427]        > 7.5 µM
27  Cc1ncc(NC(=O)CN2CC(C)(C)C2)cc1NC(=O)c1cnn2cc(-c3ccc(CO)o3)sc12 [Example 292]        > 7.5 µM
28  COc1ccncc1-c1cn2ncc(C(=O)Nc3cc(NC(=O)CN4C[C@H](C)O[C@@H](C)C4)cnc3C)c2s1 (relative stereo) [Example 385]      > 0.833 µM
29  Cc1ncc(NC(=O)CN2CC(C)(C)C2)cc1NC(=O)c1cnn2cc(-c3cnn(CC(N)=O)c3)sc12 [Example 267]        > 7.5 µM
